system: reporter cell line for IL-2 (EL-4 cells); assay: FCC primary screening with IL-2 reporter cells; format: cell-based, mouse; details: relative viability×(relative fluorescence−100); PMA and ionomycin activated, compound 0.4 μg/ml, 18 h
FCC parameter (IL-2 screening) strictly under -6000 means true (1); at -6000 or over means false (0).

COc1cccc2c1C(=O)CC(c1ccccc1)O2 (stereo not shown) [Compound 9, 5-methoxy-2-phenylchroman-4-one]	false (0)
CC(C)=CCc1c(O)cc(O)c2c1OC(c1ccc(O)cc1)CC2=O (stereo not shown) [Compound 5]	false (0)
COc1cc(OC)c2c(c1)OC(c1ccccc1)CC2=O (stereo not shown) [Compound 8, 5,7-dimethoxy-2-phenylchroman-4-one]	false (0)
CC1(C)CC2(CC(c3ccccc3)Oc3cc(O)ccc32)NC(=S)N1 (stereo not shown) [Compound 2]	false (0)
CC(=O)Oc1ccc2c(c1)OC(c1ccccc1)CC21CC(C)(C)NC(=S)N1 (stereo not shown) [Compound 4]	false (0)

Consider now this further compound.
IN: Criterion: FCC parameter (IL-2 screening) strictly below -6000. Is it met by COc1cccc(C2CC(=O)c3ccccc3O2)c1OC (stereo not shown) [Compound 10, 2-(2,3-dimethoxyphenyl)chroman-4-one] ?
OUT: true (1)

---

tested on: reporter cell line for IL-2 (EL-4 cells); test: FCC primary screening with IL-2 reporter cells; type: cell-based, mouse; details: relative viability×(relative fluorescence−100); PMA and ionomycin activated, compound 0.4 μg/ml, 18 h
measureName: FCC parameter (IL-2 screening)
Format: numeric value only, no unit, no commentary.

The following compounds have reported results that may help.
O=C1CC(c2ccccc2O)Oc2ccc(O)cc21 (centres unmarked)	−5169
COc1ccc(C2CC(=O)c3cc(O)cc(O)c3O2)cc1 (centres unmarked)	−8723
CC(=O)Oc1ccc(/C=C/C(=O)CC2OC(Oc3cc(OC(C)=O)c4c(c3)O[C@@H](c3ccc(OC(C)=O)cc3)CC4=O)C(OC(C)=O)C(OC(C)=O)C2OC(C)=O)cc1 (some centres unmarked)	−5095

IN: Supply measured FCC parameter (IL-2 screening) of COc1ccc2c(c1)OC(c1ccccc1)CC2=O (centres unmarked) in your reply.
OUT: −6917

IN: Supply measured FCC parameter (IL-2 screening) of CC(=O)Oc1cc2c(cc1Cl)C(C)(C)CC(C)(c1cc(Cl)c(OC(C)=O)cc1OC(C)=O)O2 (centres unmarked) in your reply.
OUT: −7615

---

tested on: IL-2 production by Jurkat cells; assay: ELISA for IL-2 in Jurkat cells; assay type: cell-based; details: Homo sapiens; 10 μg/ml; Jurkat cells, PMA and ionomycin, 24 hours
Listed below: inhibition at 10 µg/mL values for each entry.
Could you give me the number in %? Just the number is fine.

COc1cccc2c1C(=O)CC(c1ccccc1)O2 (centres unmarked) [Compound 9, 5-methoxy-2-phenylchroman-4-one]	43

IN: Supply measured inhibition at 10 µg/mL of COc1cccc(C2CC(=O)c3ccccc3O2)c1OC (centres unmarked) [Compound 10, 2-(2,3-dimethoxyphenyl)chroman-4-one] in your reply.
OUT: 32

IN: Supply measured inhibition at 10 µg/mL of CC(C)=CCc1c(O)cc(O)c2c1OC(c1ccc(O)cc1)CC2=O (centres unmarked) [Compound 5] in your reply.
OUT: 28

IN: Supply measured inhibition at 10 µg/mL of O=C1CC(c2ccccc2O)Oc2ccc(O)cc21 (centres unmarked) [Compound 6] in your reply.
OUT: 58

---

tested on: IL-2 production by Jurkat cells; assay: ELISA for IL-2 in Jurkat cells; type: cell-based; conditions: Homo sapiens; 10 μg/ml; Jurkat cells, PMA and ionomycin, 24 hours
Listed below: inhibition at 10 µg/mL values for each entry.
Could you give me the number in %? Just the number is fine.

IN: Supply measured inhibition at 10 µg/mL of COc1cc(OC)c2c(c1)OC(c1ccccc1)CC2=O (stereo not shown) in your reply.
OUT: 80

IN: Supply measured inhibition at 10 µg/mL of CC(=O)Oc1cc2c(cc1Cl)C(C)(C)CC(C)(c1cc(Cl)c(OC(C)=O)cc1OC(C)=O)O2 (stereo not shown) in your reply.
OUT: 100

IN: Supply measured inhibition at 10 µg/mL of COc1ccc2c(c1)OC(c1cccc(OC)c1OC)CC2=O (stereo not shown) in your reply.
OUT: 67

IN: Supply measured inhibition at 10 µg/mL of COc1ccc2c(c1)OC(c1ccccc1)CC2=O (stereo not shown) in your reply.
OUT: 35
